testSummary: Assessment of early side effects in therapy mice
conditionContext: endpoint of therapy
Positions of bridges follow the written chain, without caps; N, C: chain ends. Non-standard residues stand in square brackets, D forms with d. Residues, ends and D or L forms follow the SMILES beside them. *: point of attachment. DOTA = O=C(O)CN1CCN(CC(=O)O)CCN(CC(=O)*)CCN(CC(=O)O)CC1; dPhe(4-NHCONH2) = NC(=O)Nc1ccc(C[C@@H](N)C(=O)O)cc1; Phe(4-Cl) = N[C@@H](Cc1ccc(Cl)cc1)C(=O)O
endpointLabel: ALP (alkaline phosphatase)

molecule: C[C@@H](O)[C@@H]1NC(=O)[C@H](CCCCN)NC(=O)[C@@H](Cc2ccc(NC(N)=O)cc2)NC(=O)[C@H](Cc2ccc(O)cc2)NC(=O)[C@H](NC(=O)[C@H](Cc2ccc(Cl)cc2)NC(=O)CN2CCN(CC(=O)O)CCN(CC(=O)O)CCN(CC(=O)O)CC2)CSSC[C@@H](C(=O)N[C@H](Cc2ccc(O)cc2)C(N)=O)NC1=O [metal not drawn] ({DOTA}-[Phe(4-Cl)][dC]Y[dPhe(4-NHCONH2)]KTC[dY]-NH2; disulfide 2-7)
endpointLabel: ALP (alkaline phosphatase)
reading: 66 ± 5 U/L
--
molecule: C[C@@H](O)[C@@H]1NC(=O)[C@H](CCCCN)NC(=O)[C@@H](Cc2c[nH]c3ccccc23)NC(=O)[C@H](Cc2ccc(O)cc2)NC(=O)[C@@H](NC(=O)[C@@H](Cc2ccccc2)NC(=O)CN2CCN(CC(=O)O)CCN(CC(=O)O)CCN(CC(=O)O)CC2)CSSC[C@@H](C(=O)N[C@H](CO)[C@@H](C)O)NC1=O [[^161Tb]Tb-DOTATOC] [metal not drawn]
endpointLabel: ALP (alkaline phosphatase)
reading: 76 ± 21 U/L

Shift focus to the following entry.
Recorded result, C[C@@H](O)[C@@H]1NC(=O)[C@H](CCCCN)NC(=O)[C@@H](Cc2c[nH]c3ccccc23)NC(=O)[C@H](Cc2ccc(O)cc2)NC(=O)[C@@H](NC(=O)[C@@H](Cc2ccccc2)NC(=O)CN2CCN(CC(=O)O)CCN(CC(=O)O)CCN(CC(=O)O)CC2)CSSC[C@@H](C(=O)N[C@H](CO)[C@@H](C)O)NC1=O [[^177Lu]Lu-DOTATOC] [metal not drawn] , ALP (alkaline phosphatase): 77 ± 8 U/L
